The measured values listed here are drawn from ChEMBL document CHEMBL4602703.

test: Intrinsic clearance in mouse liver microsomes assessed as per mg protein; format: ADME, Microsome; conditions: microsomes
measure name: microsomal CLint (µL/min/mg)
I only need the number, in µL/min/mg, no unit after it.

# annotated cases, reported microsomal CLint shown
Cc1[nH]c(C(=O)N2CCCCC2)cc1Cc1ccc(C(F)(F)F)nc1 ... 93
Cc1c(Cc2ccc(C(F)(F)F)cc2F)c[nH]c1C(=O)NC1CC1 ... 184
Cc1[nH]c(C(=O)NC2CC2)c(C)c1Cc1ccc(C(F)(F)F)nc1 ... 33
Cc1c(Cc2cccnc2)c[nH]c1C(=O)NC1CC1 ... 138
Cc1c(Cc2ccc(C(F)(F)F)nc2)c[nH]c1C(=O)NC1CCC1 ... 204

We next turn to a different compound, shown below.
According to the records, this compound Cc1c(Cc2ccc(C(F)(F)F)nc2)c[nH]c1C(=O)N1CC(F)(F)C1 displays microsomal CLint of 94
